Experiment: In-vivo pharmacokinetic evaluation in SD rats
Conditions: rat, plasma, iv; male SD rats, 2.0 mg/kg
measuredMetric: half-life (h)
# output: bare number, implied unit h

Ask | Requested field: half-life. Item: CSC[C@H](NC(=O)c1cc(Cl)ccc1Cl)C(=O)N[C@@H](CC(C)C)B(O)O
Reply | 2.08

----------
Assay: In-vivo pharmacokinetic evaluation in SD rats
Conditions: rat, plasma, iv; male SD rats, 2.0 mg/kg
measuredMetric: MRT last (h)
# output: bare number, implied unit h

Ask | Requested field: MRT last. Item: CSC[C@H](NC(=O)c1cc(Cl)ccc1Cl)C(=O)N[C@@H](CC(C)C)B(O)O
Reply | 1.55

----------
Assay: In-vivo pharmacokinetic evaluation in SD rats
Conditions: rat, plasma, iv; male SD rats, 2.0 mg/kg
measuredMetric: AUC(0-t) (ng·h/mL)
# output: bare number, implied unit ng·h/mL

Ask | Requested field: AUC(0-t). Item: CSC[C@H](NC(=O)c1cc(Cl)ccc1Cl)C(=O)N[C@@H](CC(C)C)B(O)O
Reply | 1890

----------
Assay: In-vivo pharmacokinetic evaluation in SD rats
Conditions: rat, plasma, po; male SD rats, 2.0 mg/kg
measuredMetric: half-life (h)
# output: bare number, implied unit h

Ask | Requested field: half-life. Item: CSC[C@H](NC(=O)c1cc(Cl)ccc1Cl)C(=O)N[C@@H](CC(C)C)B(O)O
Reply | 2.14

----------
Test: In-vivo pharmacokinetic evaluation in SD rats
Details: rat, plasma, po; male SD rats, 2.0 mg/kg
measuredMetric: AUC(0-t) (ng·h/mL)
# output: bare number, implied unit ng·h/mL

Ask | Requested field: AUC(0-t). Item: CSC[C@H](NC(=O)c1cc(Cl)ccc1Cl)C(=O)N[C@@H](CC(C)C)B(O)O [IV-9]
Reply | 208
